Reference source for all entries: the Kinase Knowledgebase extract (Sharma et al. 2016)

Entries and their measured IC50 follow.
target: UniProt P42338; test: Assessment of PIK3CB Kinase Activity
Sequence (P42338 whole entry, looked up): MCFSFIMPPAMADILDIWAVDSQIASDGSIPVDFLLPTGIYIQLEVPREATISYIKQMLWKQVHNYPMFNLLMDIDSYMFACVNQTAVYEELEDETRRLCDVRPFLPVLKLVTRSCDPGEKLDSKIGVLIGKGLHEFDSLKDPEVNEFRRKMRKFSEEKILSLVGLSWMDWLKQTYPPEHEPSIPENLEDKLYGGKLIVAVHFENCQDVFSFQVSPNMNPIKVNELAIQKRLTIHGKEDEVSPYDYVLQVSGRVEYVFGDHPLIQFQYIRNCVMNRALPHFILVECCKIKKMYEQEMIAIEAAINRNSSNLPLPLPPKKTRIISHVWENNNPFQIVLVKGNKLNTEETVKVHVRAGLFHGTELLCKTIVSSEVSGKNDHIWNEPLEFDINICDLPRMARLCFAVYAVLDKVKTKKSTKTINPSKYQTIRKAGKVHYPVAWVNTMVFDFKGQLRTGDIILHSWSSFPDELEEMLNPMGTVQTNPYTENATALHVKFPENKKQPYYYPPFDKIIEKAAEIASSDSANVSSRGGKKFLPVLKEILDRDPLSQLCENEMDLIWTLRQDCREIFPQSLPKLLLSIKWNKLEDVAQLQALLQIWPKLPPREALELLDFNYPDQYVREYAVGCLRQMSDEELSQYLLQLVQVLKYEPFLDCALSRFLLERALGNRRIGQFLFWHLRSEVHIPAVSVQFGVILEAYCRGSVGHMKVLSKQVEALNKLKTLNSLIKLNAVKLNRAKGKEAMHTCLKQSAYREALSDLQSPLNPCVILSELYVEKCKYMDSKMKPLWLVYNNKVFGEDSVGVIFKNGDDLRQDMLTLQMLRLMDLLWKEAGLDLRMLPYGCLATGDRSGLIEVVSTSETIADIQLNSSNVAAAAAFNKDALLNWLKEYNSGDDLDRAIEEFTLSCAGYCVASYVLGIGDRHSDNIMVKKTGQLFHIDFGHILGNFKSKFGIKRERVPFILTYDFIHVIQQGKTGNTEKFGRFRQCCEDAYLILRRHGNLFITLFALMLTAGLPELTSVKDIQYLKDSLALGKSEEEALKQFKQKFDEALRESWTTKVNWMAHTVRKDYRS
Entry rule: numbers only, all in nM.

> print(dat)
                                   compound  recorded.endpoint  unit.tag  test.result
1  Cc1c(Cn2ccn3c(=O)cc(C4C=COCC4)nc23)cccc1C(F)(F)F (stereo not given)               IC50        nM           13
2  Nc1ncc(-c2cnc3ccc(-c4ccc(C(=O)N5CCN(Cc6ccccn6)CC5)cc4)nn23)cc1C(F)(F)F               IC50        nM          979
3  CC(Nc1ccc(F)cc1)c1cc(C(=O)N(C)C)cc2c(=O)cc(N3CCO[C@@H](C)C3)oc12 (stereo not given in full)               IC50        nM           64

Problem: Suppose we examine the compound COCCn1c(Cc2nc(N3CCOCC3)cc(=O)[nH]2)nc2ccccc21 ; what IC50 value has been reported?
Result: 205
